testedSystem: 14-3-3γ (Homo sapiens, UniProt P61981)
Construct: made in house; host or cells: E. coli NiCo21 (DE3)
Sequence (P61981 1-247): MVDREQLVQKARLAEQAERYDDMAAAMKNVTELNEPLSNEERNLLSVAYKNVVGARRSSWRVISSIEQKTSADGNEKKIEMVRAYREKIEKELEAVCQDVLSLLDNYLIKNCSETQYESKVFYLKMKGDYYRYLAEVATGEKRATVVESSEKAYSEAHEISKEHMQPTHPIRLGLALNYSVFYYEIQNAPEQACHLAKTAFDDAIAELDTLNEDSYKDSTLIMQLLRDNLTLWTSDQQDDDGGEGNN
testSummary: Isothermal titration calorimetry (ITC) of 14-3-3 binding to peptide
testContext: Table S6; ITC, 25 °C; run 2
Where a SMILES comes first, the peptide text is derived from it. [ ]: non-standard residue; d: D form. ξ: configuration not given here. Phe(4-NO2) = N[C@@H](Cc1ccc([N+](=O)[O-])cc1)C(=O)O; ξAla(4-thiazolyl) = NC(Cc1cscn1)C(=O)O; pS = N[C@@H](COP(=O)(O)O)C(=O)O; β3hS = N[C@@H](CO)CC(=O)O; Nva = CCC[C@H](N)C(=O)O; βAla = NCCC(=O)O
measure: ΔG

Below: 3 molecules and their reported ΔG.
molecule	testedSystem	ΔG
CCC[C@H](NC(=O)[C@H](N)CCCCN)C(=O)N[C@@H](Cc1ccc([N+](=O)[O-])cc1)C(=O)N[C@@H](C)C(=O)N[C@@H](COP(=O)(O)O)C(=O)N[C@@H](Cc1ccc([N+](=O)[O-])cc1)C(=O)N[C@@H](CO)CC(=O)NCCC(=O)N[C@@H](Cc1ccc([N+](=O)[O-])cc1)C(=O)N[C@@H](CCCCN)C(N)=O [3a] (H-[dK][Nva][Phe(4-NO2)]A[pS][Phe(4-NO2)][β3hS][βAla][Phe(4-NO2)]K-NH2; N-terminus and C-terminus assumed)	14-3-3γ (Homo sapiens, UniProt P61981)	-9,764 kcal mol^-1
CCC[C@H](NC(=O)[C@H](N)CCCCN)C(=O)N[C@@H](Cc1ccc([N+](=O)[O-])cc1)C(=O)NC(Cc1cscn1)C(=O)N[C@@H](COP(=O)(O)O)C(=O)N[C@@H](Cc1ccc([N+](=O)[O-])cc1)C(=O)N[C@@H](CO)CC(=O)NCCC(=O)N[C@@H](Cc1ccc(O)cc1)C(=O)N[C@@H](CCCCN)C(N)=O (stereo partly drawn) [5a] (H-[dK][Nva][Phe(4-NO2)][ξAla(4-thiazolyl)][pS][Phe(4-NO2)][β3hS][βAla]YK-NH2; N-terminus and C-terminus assumed)	14-3-3γ (Homo sapiens, UniProt P61981)	-7,626 kcal mol^-1
CCC[C@H](NC(=O)[C@H](N)CCCCN)C(=O)N[C@@H](Cc1ccc([N+](=O)[O-])cc1)C(=O)NC(Cc1cscn1)C(=O)N[C@@H](COP(=O)(O)O)C(=O)N[C@@H](Cc1ccccc1)C(=O)N[C@@H](CO)CC(=O)NCCC(=O)N[C@@H](Cc1ccc([N+](=O)[O-])cc1)C(=O)N[C@@H](CCCCN)C(N)=O (stereo partly drawn) [4b] (H-[dK][Nva][Phe(4-NO2)][ξAla(4-thiazolyl)][pS]F[β3hS][βAla][Phe(4-NO2)]K-NH2; N-terminus and C-terminus assumed)	14-3-3γ (Homo sapiens, UniProt P61981)	-10,13 kcal mol^-1

Would you mind telling me what ΔG value was observed for CCC[C@H](NC(=O)[C@H](N)CCCCN)C(=O)N[C@@H](Cc1ccc([N+](=O)[O-])cc1)C(=O)NC(Cc1cscn1)C(=O)N[C@@H](COP(=O)(O)O)C(=O)N[C@@H](C)C(=O)N[C@@H](CO)CC(=O)NCCC(=O)N[C@@H](Cc1ccc([N+](=O)[O-])cc1)C(=O)N[C@@H](CCCCN)C(N)=O (stereo partly drawn) [4c] (H-[dK][Nva][Phe(4-NO2)][ξAla(4-thiazolyl)][pS]A[β3hS][βAla][Phe(4-NO2)]K-NH2; N-terminus and C-terminus assumed) ? -8,278 kcal mol^-1

Would you mind telling me what ΔG value was observed for CCC[C@H](NC(=O)[C@H](N)CCCCN)C(=O)N[C@@H](Cc1ccc([N+](=O)[O-])cc1)C(=O)NC(Cc1cscn1)C(=O)N[C@@H](COP(=O)(O)O)C(=O)N[C@@H](Cc1ccc(O)cc1)C(=O)N[C@@H](CO)CC(=O)NCCC(=O)N[C@@H](Cc1ccc([N+](=O)[O-])cc1)C(=O)N[C@@H](CCCCN)C(N)=O (stereo partly drawn) [4a] (H-[dK][Nva][Phe(4-NO2)][ξAla(4-thiazolyl)][pS]Y[β3hS][βAla][Phe(4-NO2)]K-NH2; N-terminus and C-terminus assumed) ? -9,844 kcal mol^-1
